Data provenance: ChEMBL document CHEMBL4265871

Tested on: Candida albicans
protocol: Antifungal activity against ITC and FLC-resistant Candida albicans ATCC MYA-90819 incubated for 48 hrs by modified CLSI M27-A3 protocol based method
Assay type: functional
measurement-parameters: ATCC MYA-90819, 48 h
Recorded measurements of log10(MIC50), one per entry
Would you kindly interpret these values as log10 of MIC50 expressed in µM?

Here are 8 compounds together with their reported answers.
{"columns": ["compound", "quantitative-result"],
 "data": [
  ["CCCCCC(O)(Cn1cncn1)c1cccc(F)c1 (stereo not drawn)", 1.15],
  ["CCCCCC(O)(Cn1cncn1)c1cccc(Cl)c1 (stereo not drawn)", 1.12],
  ["CCCCC(O)(Cn1cncn1)c1ccc(F)cc1F (stereo not drawn)", 1.74],
  ["CCCCCC(O)(Cn1cncn1)c1ccccc1Cl (stereo not drawn)", 0.20],
  ["CCC(O)(Cn1cncn1)c1ccc(F)cc1F (stereo not drawn)", 2.09],
  ["CCCCCCC(O)(Cn1cncn1)c1cccc(F)c1 (stereo not drawn)", 0.83],
  ["CCCCCCCCC(O)(Cn1cncn1)c1ccc(F)cc1F (stereo not drawn)", 0.76],
  ["CCCC(O)(Cn1cncn1)c1ccc(F)cc1F (stereo not drawn)", 1.77]
]}

Challenge: What is its log10(MIC50) for Candida albicans? Entry: CCCCCCC(O)(Cn1cncn1)c1ccccc1Cl (stereo not drawn)
Response given: 0.80

Challenge: Ok, now CCCCCCC(O)(Cn1cncn1)c1ccc(Cl)cc1 (stereo not drawn)
Response given: 1.10

Challenge: Query CCCCCCC(O)(Cn1cncn1)c1ccc(F)cc1 (stereo not drawn) next
Response given: 0.52
